# test-details: E. coli DRC41 culture turbidity changes, primary screen, E. coli filamentation inducer project, strain DRC41, OD650, 48 h (AID 1152);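 further: E. coli MC1000 strain DRC41 lacking acrAB efflux pump and sulA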
# settings: E. coli DRC41 (acrAB sulA), higher = more signal, called active from +8 up or from −8 down
Activity calls are given as the source filed them.
readout-name: z-score

Some solved entries appear below for comparison.
structure-as-smiles	readout-name	result
CN(C)CCCNC(=O)[C@@]1(c2ccc([N+](=O)[O-])cc2)CC(=O)N(CC23CC4CC(CC(C4)C2)C3)[C@@H]1c1ccc(CO)cc1I	z-score	-5.6 (inactive)
C[C@@H]1ON(c2ccc(C(=O)OC(C)(C)C)cc2)[C@H](c2ccc(O)cc2)[C@H]1C(=O)N1C(=O)OC[C@H]1Cc1ccccc1	z-score	-0.476 (inactive)

We now examine a further molecule.
What value of z-score has been recorded for this entry: `COCCOC(=O)N1C(=O)[C@@]2(c3cc(C#Cc4ccc(OC)cc4)ccc31)[C@H](C(=O)Nc1nc3ccccc3s1)[C@H]1C(=O)O[C@H](c3ccccc3)[C@H](c3ccccc3)N1[C@@H]2c1ccc(OCCO)cc1`
-0.221 (inactive)
